The reported numbers originate from ChEMBL document CHEMBL3351790.

- Test system: Liver microsome
- assay procedure: Inhibition of lipid peroxidation in rat liver microsomes
- Assay type: functional
quantity kind: IC50 (nM)

// below: answered compounds
{"columns": ["compound", "scale unit", "readout value"],
 "data": [
  ["CCCCCCCCCCCCNc1ccc(O)cc1", "nM", 15.5],
  ["CCCCCCCCCCNc1ccc(O)cc1", "nM", 15]
]}

(I) CCCCCCCCNc1ccc(O)cc1
(II) CC1=C(/C=C/C(C)=C/C=C/C(C)=C/C(=O)Nc2ccc(O)cc2)C(C)(C)CCC1 [FENRETINIDE]
(III) CC1=C(/C=C/C(C)=C/C=C/C(C)=C/C(=O)O)C(C)(C)CCC1
(IV) CCCCCCNc1ccc(O)cc1
input: Put these in order: smallest IC50 first, largest last. To answer, write out the labels according to the requested order.
output: I, IV, III, II
(I: 14 nM, IV: 33 nM, III: 3200 nM, II: 5000 nM)
